ASSAY EXPLANATION: self-splicing fitness, log relative to wild type (ln ratio); higher = more splicing; Tetrahymena group I intron in knt gene, E. coli kanamycin selection, DiMSum; sequences stand for … in CUCUCU…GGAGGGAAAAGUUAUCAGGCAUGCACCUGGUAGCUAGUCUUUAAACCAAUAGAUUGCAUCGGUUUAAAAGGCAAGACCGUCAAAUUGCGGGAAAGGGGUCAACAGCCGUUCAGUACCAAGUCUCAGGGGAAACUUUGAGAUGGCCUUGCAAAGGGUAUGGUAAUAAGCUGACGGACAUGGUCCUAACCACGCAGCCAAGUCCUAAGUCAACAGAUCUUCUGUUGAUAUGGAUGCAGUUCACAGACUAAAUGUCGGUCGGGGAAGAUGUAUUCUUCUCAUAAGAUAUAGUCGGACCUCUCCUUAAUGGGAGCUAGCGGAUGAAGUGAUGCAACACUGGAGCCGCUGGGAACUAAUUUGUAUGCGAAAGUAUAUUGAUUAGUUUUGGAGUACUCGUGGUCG;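 also: selection with 25 µg/mL kanamycin versus none on LB agar overnight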
CONDITION INFO: 30 °C
Below, each entry is listed alongside its reported self-splicing fitness (ln).

{"columns": ["RESIDUES", "self-splicing fitness (ln)"],
 "data": [
  ["CGGUAGCAAUAUUACGGGGG", -3.21],
  ["AGGAAGCAAUAUUACGAUUG", -3.96],
  ["AUAGAGCAAUAUUACGAGUA", -3.77],
  ["GGAGAGCAAUAUUACGUGAA", -0.689],
  ["GCCGAGCAAUAUUACGCAUG", -3.99],
  ["GGCCAGCAAUAUUACGUCUG", -3.07],
  ["ACGCAGCAAUAUUACGGCCG", -1.66],
  ["CUACAGCAAUAUUACGUAUU", -4.19],
  ["AACUAGCAAUAUUACGACAA", -0.829],
  ["GAACAGCAAUAUUACGAGCC", -1.57],
  ["UCUCAGCAAUAUUACGAUAU", -2.12],
  ["CCUCAGCAAUAUUACGUCUG", -3.75],
  ["UGCGAGCAAUAUUACGUUCC", -2.19],
  ["GAACAGCAAUAUUACGAAUU", -1.15],
  ["CUCAAGCAAUAUUACGUUAC", -4.46],
  ["UCUGAGCAAUAUUACGGAGA", -2.35],
  ["CCACAGCAAUAUUACGCUGG", -4.04],
  ["UCGCAGCAAUAUUACGUGUG", -2.24],
  ["GUGAAGCAAUAUUACGUUCG", -0.236],
  ["CUCAAGCAAUAUUACGGCGU", -2.09],
  ["GGUCAGCAAUAUUACGGACU", -1.49],
  ["UGUAAGCAAUAUUACGGUUG", -1.14],
  ["AGCAAGCAAUAUUACGAGUG", -1.15],
  ["AAAUAGCAAUAUUACGUCCG", -1.39],
  ["UCCUAGCAAUAUUACGAGCA", -1.64],
  ["CGCGAGCAAUAUUACGCACU", -2.58],
  ["GCUCAGCAAUAUUACGGCCA", -1.77],
  ["AUUAAGCAAUAUUACGCUGA", -2.36],
  ["AAACAGCAAUAUUACGCCCC", -1.63],
  ["AUCCAGCAAUAUUACGGGAU", -3.75],
  ["GUCUAGCAAUAUUACGACGU", -0.253],
  ["CCAUAGCAAUAUUACGGACU", -3.84],
  ["GGCGAGCAAUAUUACGCAAC", -0.841],
  ["UAUUAGCAAUAUUACGGCGU", -1.24],
  ["UGGGAGCAAUAUUACGACGU", -2.93],
  ["UUGAAGCAAUAUUACGGAUA", -0.345],
  ["CAAUAGCAAUAUUACGAAGU", -3.76],
  ["UCCGAGCAAUAUUACGGCAC", -2.01],
  ["UCUAAGCAAUAUUACGUUAG", -2.19],
  ["UUGAAGCAAUAUUACGGGGC", -3.3],
  ["GGAAAGCAAUAUUACGUAUG", -2.27],
  ["UGCUAGCAAUAUUACGUCCG", -0.00657],
  ["GAAUAGCAAUAUUACGGGCU", -2.85],
  ["UGACAGCAAUAUUACGGUUG", -2.49],
  ["CUCAAGCAAUAUUACGGGGU", -3.4],
  ["CACGAGCAAUAUUACGAAGU", -1.68],
  ["CUAAAGCAAUAUUACGCUCG", -0.715],
  ["AAGGAGCAAUAUUACGUUCU", -2.47],
  ["AGAAAGCAAUAUUACGAUUU", -0.00992],
  ["CAGUAGCAAUAUUACGCUUU", -4.27],
  ["GCCGAGCAAUAUUACGUUGG", -3.55],
  ["CGUUAGCAAUAUUACGACAA", -1.99],
  ["AUCCAGCAAUAUUACGAACU", -1.98],
  ["CGAGAGCAAUAUUACGAGUG", -3.53],
  ["CUGGAGCAAUAUUACGGCAC", -3.28],
  ["GCACAGCAAUAUUACGUACG", -0.945],
  ["GUCCAGCAAUAUUACGCUUC", -1.38],
  ["AAGAAGCAAUAUUACGCUUA", -1.05],
  ["CCAAAGCAAUAUUACGUGGG", -2.85],
  ["AAAUAGCAAUAUUACGAUAU", -1.21],
  ["UGAAAGCAAUAUUACGCAAU", -2.16],
  ["GAGCAGCAAUAUUACGUUAC", -2.55],
  ["CUAGAGCAAUAUUACGUCGU", -3.73],
  ["AGAUAGCAAUAUUACGUAUA", -1.91],
  ["CCGGAGCAAUAUUACGCACC", -1.27],
  ["UGCGAGCAAUAUUACGCGAA", -3.08],
  ["GCUGAGCAAUAUUACGUCUA", -2.85]
]}
